System: MDA-MB-468
Test: normalised viability (% of control), CellTiter-Blue; higher = more viable cells (about 100 = DMSO control)
Details: 100 nM; incubation time: 72 h
Collected normalised viability values appear next to each entry.
metric: normalised viability (%)

compound: Oc1ncnc2[nH]ncc12 [Allopurinol]
target: MDA-MB-468
measValue: 105
--
compound: CC1=C2C[C@H]3[C@@H](CC=C4C[C@@H](O)CC[C@@]43C)[C@@H]2CC[C@]12O[C@@H]1C[C@H](C)CN[C@H]1[C@H]2C [Cyclopamine]
target: MDA-MB-468
measValue: 94.4
--
compound: O=P(O)(O)C(O)(Cn1ccnc1)P(=O)(O)O [Zoledronic acid]
target: MDA-MB-468
measValue: 117
--
compound: Nc1ncn([C@@H]2O[C@H](CO)[C@@H](O)[C@H]2O)c(=O)n1 [Azacitidine]
target: MDA-MB-468
measValue: 103
--
compound: O=NN(CCCl)C(=O)NCCCl [Carmustine]
target: MDA-MB-468
measValue: 123
--
compound: Cc1sc2c(c1C)C(c1ccc(Cl)cc1)=N[C@@H](CC(=O)OC(C)(C)C)c1nnc(C)n1-2 [(+)JQ1]
target: MDA-MB-468
measValue: 108
--
compound: O=C1CN2Cc3c(ccc(Cl)c3Cl)N=C2N1 [Anagrelide]
target: MDA-MB-468
measValue: 95.2

----------
// reported normalised response per item
System: MDA-MB-453
Assay: normalised response (% of control), CellTiter-Glo; higher = more viable cells (100 = DMSO, 0 = benzethonium chloride kill control)
Conditions: incubation time: 72 h

compound: CC1=C2C[C@H]3[C@@H](CC=C4C[C@@H](O)CC[C@@]43C)[C@@H]2CC[C@]12O[C@@H]1C[C@H](C)CN[C@H]1[C@H]2C [Cyclopamine] (10 nM)
normalised response / %: 109
--
compound: CC(=O)O[C@@]12CO[C@@H]1C[C@H](O)[C@@]1(C)C(=O)[C@H](O)C3=C(C)[C@@H](OC(=O)[C@H](O)[C@@H](NC(=O)OC(C)(C)C)c4ccccc4)C[C@@](O)([C@@H](OC(=O)c4ccccc4)[C@H]21)C3(C)C [Docetaxel] (1 nM)
normalised response / %: 104
--
compound: Oc1ncnc2[nH]ncc12 [Allopurinol] (1000 nM)
normalised response / %: 107
--
compound: Cc1sc2c(c1C)C(c1ccc(Cl)cc1)=N[C@@H](CC(=O)OC(C)(C)C)c1nnc(C)n1-2 [(+)JQ1] (1000 nM)
normalised response / %: 46.1
--
compound: Nc1ncn([C@@H]2O[C@H](CO)[C@@H](O)[C@H]2O)c(=O)n1 [Azacitidine] (1 nM)
normalised response / %: 112
--
compound: C[C@]1(O)C[C@@H](c2nc(-c3ccc4ccc(-c5ccccc5)nc4c3)c3c(N)nccn32)C1 [Linsitinib] (1000 nM)
normalised response / %: 83.8
--
compound: C[C@]12CC[C@@H]3c4ccc(OC(=O)N(CCCl)CCCl)cc4CC[C@H]3[C@@H]1CC[C@@H]2O [Estramustine] (10 nM)
normalised response / %: 88.8
--
compound: CC(=O)N(O)CCCCCNC(=O)CCC(=O)N(O)CCCCCNC(=O)CCC(=O)N(O)CCCCCN [Deferoxamine] (1000 nM)
normalised response / %: 84.2
--
compound: C[C@]12CC[C@@H]3c4ccc(OC(=O)N(CCCl)CCCl)cc4CC[C@H]3[C@@H]1CC[C@@H]2O [Estramustine] (1000 nM)
normalised response / %: 93.5
--
compound: COc1cc2c(cc1O)CC[C@@H]1[C@@H]2CC[C@]2(C)[C@@H](O)CC[C@@H]12 [2-methoxyestradiol] (1000 nM)
normalised response / %: 72.7
--
compound: O=C1CN2Cc3c(ccc(Cl)c3Cl)N=C2N1 [Anagrelide] (1000 nM)
normalised response / %: 101
--
compound: CC[C@@H]1C(=O)OC[C@@H]1Cc1cncn1C [Pilocarpine] (4 nM)
normalised response / %: 111
--
compound: COc1cc2c(cc1O)CC[C@@H]1[C@@H]2CC[C@]2(C)[C@@H](O)CC[C@@H]12 [2-methoxyestradiol] (1 nM)
normalised response / %: 106
--
compound: Cn1cnc2c(F)c(Nc3ccc(Br)cc3Cl)c(C(=O)NOCCO)cc21 [Selumetinib] (1000 nM)
normalised response / %: 106

The reported measurements were obtained from the supplement of paper PMC4862054.
